Tested on: S. cerevisiae Mot1-301 ts growth rescue, BacTiter-Glo ATP luminescence
Experiment: restored Mot1-301 yeast growth at 38.5C – whole organism, S. cerevisiae, Mot1-301 ts mutant, luminescence, dose retest, SUMOylation pathway inhibitor project, confirmation (AID 463204);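 also: growth at restrictive 38.5 degrees C of Mot1-301 OY566 strain; actives raise luminescence by restoring growth of the ts mutant at high temperature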
Calls of active or inactive are those of the source.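 The calls were made as follows: active = AC50 no more than ten times the top concentration tested, that is within one log above it; inconclusive = flat curve fit with activity between 30% and 70%, or invalid poor fit; inactive = AC50 beyond ten times the top tested dose.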
measured property: AC50

Solved entries (count: 3):
>  <compound>
O=C(CSc1nnc(CNC(=O)c2ccccc2)o1)NCc1ccco1

>  <AC50>
> 42 µM (inactive)

$$$$
>  <compound>
COc1ccc(/C=C(/C#N)S(=O)(=O)c2ccc(C)cc2)cc1

>  <AC50>
> 21 µM (inactive)

$$$$
>  <compound>
O=C1c2ccccc2C(=O)N1CCCCSc1nc2ccccc2c(=O)n1CCCN1CCOCC1

>  <AC50>
> 42 µM (inactive)

$$$$

Please give AC50, item by item, for the list that follows.
1. O=S1(=O)CC(N2CCCCC2)C(N2CCCCC2)C1 (stereo not drawn)
2. CC(C)c1onc(C(=O)N(C)Cc2ccccc2)c1[N+](=O)[O-]
3. CCOc1ccccc1NC(=O)CSc1nc(N)c(C#N)cc1C#N
4. COCC(C)n1c(SCC(=O)NNC(=O)c2ccccc2)nc2ccccc2c1=O (stereo not drawn)
5. CC1(C)C=C(c2ccc(O)cc2)CC(C)(C)N1
6. Cc1cccc(OCC(O)CN2C(C)(C)CC(O)CC2(C)C)c1 (stereo not drawn)
7. Cc1c(C(=O)OCC(=O)Nc2ccc(S(N)(=O)=O)cc2)oc2c1ccc1ccccc12
8. COc1ccc2[nH]cc(CCNS(=O)(=O)c3ccc(C)cc3)c2c1

-- reply
> 42 µM (inactive)
> 42 µM (inactive)
> 42 µM (inactive)
> 42 µM (inactive)
> 42 µM (inactive)
> 42 µM (inactive)
> 42 µM (inactive)
> 42 µM (inactive)

Please give AC50, item by item, for the list that follows.
1. O=C(Nc1nccs1)C1CCN(S(=O)(=O)c2ccc(Cl)c(C(F)(F)F)c2)CC1
2. CC(C)C(=O)NCCSc1c[nH]c2ccccc12
3. O=C1c2cccc3c(N4CCCCC4)ccc(c23)C(=O)N1CCO
4. COc1ccc2c(CC(=O)Nc3ccc(OC)c(NS(=O)(=O)c4ccc(F)cc4)c3)coc2c1

-- reply
> 42 µM (inactive)
> 42 µM (inactive)
> 42 µM (inactive)
> 42 µM (inactive)

Please give AC50, item by item, for the list that follows.
1. CCNc1ccccc(C(=O)/C=C/c2ccc3c(c2)OCO3)c1=O
2. CC(C)C1=CC(=Nc2ccc(S(N)(=O)=O)cc2)C=C(C(C)C)C1=O
3. COc1ccc(Cn2nnnc2CN2CCN(c3ccc(OC)cc3)CC2)cc1
4. CCN1CCN(CC(=O)N2N=CCC2c2ccccc2)CC1 (stereo not drawn)
5. COc1cc(CNCCN2CCOCC2)ccc1OCc1ccccc1Cl
6. O=C(COc1ncnc2ccccc12)Nc1ccc(Cl)c(S(=O)(=O)N2CCOCC2)c1
7. O=c1cnc2cc([N+](=O)[O-])ccc2[nH]1
8. COc1ccc(C2C(C(=O)Nc3cc(OC)c(OC)c(OC)c3)c3ccccc3C(=O)N2C)cc1 (stereo not drawn)

-- reply
["> 42 µM (inactive)", "> 42 µM (inactive)", "> 42 µM (inactive)", "> 42 µM (inactive)", "> 42 µM (inactive)", "> 42 µM (inactive)", "> 42 µM (inactive)", "> 42 µM (inactive)"]

* * *

System: S. cerevisiae Mot1-301 ts growth rescue, BacTiter-Glo ATP luminescence
Test: restored Mot1-301 yeast growth at 38.5C – whole organism, S. cerevisiae, Mot1-301 ts mutant, luminescence, dose retest, SUMOylation pathway inhibitor project, confirmation (AID 463204)
Active and inactive are the calls of the source.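 How the source made its calls: active means AC50 no more than ten times the top concentration tested, that is within one log above it; inconclusive means flat curve fit with activity between 30% and 70%, or invalid poor fit; inactive means AC50 beyond ten times the top tested dose.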
Could you please pick one outcome from this set? y (active), n (inactive)

Examples from the recorded data:
>  <molecule>
N#Cc1c(-c2ccco2)cc(-c2cccnc2)nc1N

>  <category label>
n

$$$$
>  <molecule>
COc1cc(NC(=O)C2=CC(c3ccco3)=NS(=O)(=O)N2C)cc(OC)c1OC

>  <category label>
n

$$$$
>  <molecule>
Cc1ccc(NC(=O)Cn2c(CCC(=O)O)ccc2-c2cccs2)cc1

>  <category label>
n

$$$$
>  <molecule>
Nc1cccc2c1C(=O)N(c1ccccc1)C2=O

>  <category label>
n

$$$$
>  <molecule>
O=C(CSc1nnc(-c2ccc(Br)cc2)o1)Nc1cccc2ccccc12

>  <category label>
n

$$$$

-- ask Short answer needed: outcome of this test for CCOc1ccccc1N(C(=O)c1snc(C(N)=O)c1N)C(CC)C(=O)NC1CCCC1 (stereo not given) ?
-- reply y

-- ask Short answer needed: outcome of this test for Cc1cc(C(=O)NNC(=O)c2ccc(C)s2)c(C)o1 ?
-- reply n

-- ask Short answer needed: outcome of this test for CCOC(=O)c1cc([N+](=O)[O-])c([N+](=O)[O-])cc1NC(C)=O ?
-- reply y

* * *

Tested on: S. cerevisiae Mot1-301 ts growth rescue, BacTiter-Glo ATP luminescence
Experiment: restored Mot1-301 yeast growth at 38.5C – whole organism, S. cerevisiae, Mot1-301 ts mutant, luminescence, dose retest, SUMOylation pathway inhibitor project, confirmation (AID 463204);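 also: growth at restrictive 38.5 degrees C of Mot1-301 OY566 strain; actives raise luminescence by restoring growth of the ts mutant at high temperature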
The source made the active and inactive calls.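 Rule for the calls: active = AC50 no more than ten times the top concentration tested, that is within one log above it; inconclusive = flat curve fit with activity between 30% and 70%, or invalid poor fit; inactive = AC50 beyond ten times the top tested dose.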
Could you please pick one outcome from this set? active, inactive

Examples from the recorded data:
>  <compound>
O=C(COC(=O)c1cccc(Br)c1)Nc1ccc2[nH]c(=O)[nH]c2c1

>  <category label>
inactive

$$$$
>  <compound>
O=C(NCCc1c[nH]c2ccccc12)c1cc(S(=O)(=O)N2CCCCC2)ccc1N1CCOCC1

>  <category label>
inactive

$$$$
>  <compound>
COc1cc(OC)c(C(=O)N2CCN(c3ccccn3)CC2)cc1OC

>  <category label>
inactive

$$$$
>  <compound>
O=C(Nc1nc2ccccc2s1)c1cccc(S(=O)(=O)N2CCc3ccccc32)c1

>  <category label>
inactive

$$$$
>  <compound>
COc1ccc(CN2CC(=O)N(c3ccccc3C)C2=S)cc1OC

>  <category label>
inactive

$$$$
>  <compound>
COc1cc(CN2CCC(Oc3cc(C(=O)NC4CC4)ccc3OC)CC2)cc(OC)c1

>  <category label>
active

$$$$
>  <compound>
Cc1cc(NC(=O)c2ccc3c(c2)C(=O)N(C(C)(C)C)C3=O)no1

>  <category label>
inactive

$$$$
>  <compound>
CCCCCCNc1c(C(=O)OCC)c(=O)[nH]c2ccccc12

>  <category label>
inactive

$$$$

-- ask Short answer needed: outcome of this test for Cc1ccc(NC2CC(=O)N(c3ccc(N4CCCCC4)cc3)C2=O)cc1 (stereo unspecified) ?
-- reply inactive

-- ask Short answer needed: outcome of this test for COc1ccc(/C=N/NC(=O)c2nnn(-c3nonc3N)c2-c2cccs2)cc1OC ?
-- reply inactive

-- ask Short answer needed: outcome of this test for CCS(=O)c1ccccc1C(=O)O (stereo unspecified) ?
-- reply inactive

* * *

Test system: S. cerevisiae Mot1-301 ts growth rescue, BacTiter-Glo ATP luminescence
Test: restored Mot1-301 yeast growth at 38.5C – whole organism, S. cerevisiae, Mot1-301 ts mutant, luminescence, dose retest, SUMOylation pathway inhibitor project, confirmation (AID 463204);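 also: growth at restrictive 38.5 degrees C of Mot1-301 OY566 strain; actives raise luminescence by restoring growth of the ts mutant at high temperature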
Active and inactive are the calls of the source.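 The calls were made as follows: active = AC50 no more than ten times the top concentration tested, that is within one log above it; inconclusive = flat curve fit with activity between 30% and 70%, or invalid poor fit; inactive = AC50 beyond ten times the top tested dose.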
Could you please pick one outcome from this set? T for active, F for inactive

>  <molecule>
CCOC(=O)c1sc2ncnc(N3CCN(c4ccc(OC)cc4)CC3)c2c1C

>  <category label>
F

$$$$

-- ask Short answer needed: outcome of this test for NS(=O)(=O)c1cccc(NC(=O)c2cccnc2Oc2ccccc2)c1 ?
-- reply F

-- ask Short answer needed: outcome of this test for COc1ccc(NC(=O)c2ccc(S(=O)(=O)N(C)c3ccccc3)cc2)cn1 ?
-- reply F

-- ask Short answer needed: outcome of this test for O=Nc1c(-c2cccc([N+](=O)[O-])c2)nc2ncccn12 ?
-- reply T

-- ask Short answer needed: outcome of this test for CC1(OC(=O)CCc2ccccc2)C(=O)C=C2C=C(c3ccc(C#N)cc3)N(C3CCCC3)C=C2C1=O (stereo not given) ?
-- reply F

* * *

System: S. cerevisiae Mot1-301 ts growth rescue, BacTiter-Glo ATP luminescence
Experiment: restored Mot1-301 yeast growth at 38.5C – whole organism, S. cerevisiae, Mot1-301 ts mutant, luminescence, dose retest, SUMOylation pathway inhibitor project, confirmation (AID 463204);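 also: growth at restrictive 38.5 degrees C of Mot1-301 OY566 strain; actives raise luminescence by restoring growth of the ts mutant at high temperature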
The source made the active and inactive calls.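 How the source made its calls: active means AC50 no more than ten times the top concentration tested, that is within one log above it; inconclusive means flat curve fit with activity between 30% and 70%, or invalid poor fit; inactive means AC50 beyond ten times the top tested dose.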
measured property: AC50

Solved entries (count: 2):
>  <compound>
OCC[C@@H]1C[C@H](O)[C@@H](O)[C@]2(CCc3ccccc3CO2)O1

>  <measured property>
AC50

>  <result>
> 42 µM (inactive)

$$$$
>  <compound>
O=C(Cc1ccc(Cl)cc1)NC(=S)Nc1ccccc1N1CCOCC1

>  <measured property>
AC50

>  <result>
> 42 µM (inactive)

$$$$

Please give AC50, item by item, for the list that follows.
1. O=C(NCC1CCCO1)C1CC(c2ccc(Cl)c(Cl)c2)=NO1 (stereo not drawn)
2. O=C(NC1CCCCC1)C(c1ccncc1)N(Cc1ccc2c(c1)OCO2)C(=O)C(F)(F)F (stereo not drawn)
3. COc1ccc(C2=NOC(Cn3nc(C(=O)NCc4cccs4)cc3-c3ccccc3)C2)cc1 (stereo not drawn)
4. CCN(CC1COc2ccccc2O1)C(=S)NCCCN(C)C (stereo not drawn)
5. Cc1ccc(C)c(-n2nnnc2SCC(=O)Nc2c(C)n(C)n(-c3ccccc3)c2=O)c1
6. O=C(c1ccncc1)N(Cc1ccccc1)Cc1nc2ccccc2c(=O)[nH]1
7. Cc1nc2c3ccccc3nc(NNC(=O)CCC(=O)N3CCCC(C)C3)n2n1 (stereo not drawn)

-- reply
> 42 µM (inactive)
> 42 µM (inactive)
> 42 µM (inactive)
> 42 µM (inactive)
> 42 µM (inactive)
> 42 µM (inactive)
> 42 µM (inactive)

Please give AC50, item by item, for the list that follows.
1. COCCn1c(=O)[nH]c(=O)c2cc(C(=O)c3cc(Cl)ccc3O)cnc21
2. O=C(O)/C=C/c1cccnc1
3. O=C(N/C(=C/c1ccc2c(c1)OCO2)C(=O)N1CCOCC1)c1cccs1
4. CCOC(=O)N1CCN(c2cc3[nH]c(=S)[nH]c3cc2F)CC1
5. CC(=O)Nc1cccc(C(=O)OCC(=O)NCc2ccc(F)cc2)c1

-- reply
1: > 42 µM (inactive); 2: > 42 µM (inactive); 3: > 42 µM (inactive); 4: > 42 µM (inactive); 5: > 42 µM (inactive)

Please give AC50, item by item, for the list that follows.
1. CCc1cc2c(NCCO)ncnc2s1
2. CCOC(=O)c1ccc(NC(=O)CC2Sc3ncnn3C2=O)cc1 (stereo not drawn)
3. CCN(Cc1ccccc1)Cc1ccc(OCc2ccccc2)c(OC)c1
4. CCn1c(SCC(=O)Nc2nc(-c3ccccc3)cs2)nnc1-c1ccccc1

-- reply
> 42 µM (inactive)
6.96 µM
> 42 µM (inactive)
> 42 µM (inactive)
